These measurements were taken from patent US8022225B2.

- Assayed target: human Edg-1(S1P1) (Homo sapiens)
- Construct: expressed in transfected cells; host or cells: HEK-293
- Measurement notes: Membrane system binding test: inhibition of [33P]-S1P binding to the membrane fraction of Edg-1(S1P1) gene transferred HEK-293 cells
- Condition: test compound 10^-5 M; [33P]-S1P 0.1 nM; 1 hour at 30° C.; HEK-293 membrane fraction; read-out: Edg-1(S1P1) binding inhibition rate (membrane system binding test)
- Protocol: The membrane fraction was obtained by treating the cells with a solubilizing buffer (1 mM Tris/HCl, pH 7.2) for 10 minutes on ice, centrifuging the system (1000×g, 5 min) to remove insoluble fractions, and then centrifuging the system (40000×g, 30 min, 4° C.). […] To the filter, 25 μL Microscint 0 (produced by Perkin-Elmer) was added, and the assay system was measured for radioactivity by means of Top Count NXT (Packard). […]
Experimental endpoint: inhibition at 10 µM (%)

A selection of reference data follows.
1) CCc1ccc(S(=O)(=O)N[C@H](C)c2nnc(OC(C)C)n2CC)cc1 [Compound 480]	77.4
2) CCn1c(OCC(F)(F)F)nnc1[C@@H](C)NS(=O)(=O)c1ccc(C)c(Cl)c1 [Compound 486]	93.8
3) CCn1c(OCC(F)(F)F)nnc1[C@@H](C)NS(=O)(=O)c1ccc(Br)c(C)c1 [Compound 489]	98.4
4) CCn1c(OC)nnc1[C@@H](Cc1ccccc1)NS(=O)(=O)c1ccc(Cl)c(Cl)c1 [Compound 507]	96.7
5) CCCCn1c(OC)nnc1[C@@H](C)NS(=O)(=O)c1ccc(Cl)cc1 [Compound 544]	100
6) CCn1c(OCC(F)(F)F)nnc1[C@@H](C)NS(=O)(=O)c1ccc(C)c(C)c1 [Compound 493]	88.3
7) CCn1c(OCC(F)(F)F)nnc1[C@@H](C)NS(=O)(=O)c1cccc(OC(F)(F)F)c1 [Compound 504]	54
8) CCn1c(OC(C)C)nnc1[C@@H](C)NS(=O)(=O)c1cccc(Cl)c1C [Compound 471]	91

I = CCn1c(OC)nnc1[C@@H](Cc1ccc(F)c(F)c1)NS(=O)(=O)c1ccc(Cl)c(Cl)c1 [Compound 549]
II = CCn1c(OC)nnc1[C@@H](COC)NS(=O)(=O)c1ccc(Cl)cc1 [Compound 459]
INPUT: Identify the item whose inhibition at 10 µM is the smaller number: I or II Pick one; state its label.
OUTPUT: II

---

- Assayed target: human Edg-1(S1P1) (Homo sapiens, UniProt P21453)
- Construct: expressed in transfected cells; host or cells: HEK-293
- Sequence (P21453 whole entry): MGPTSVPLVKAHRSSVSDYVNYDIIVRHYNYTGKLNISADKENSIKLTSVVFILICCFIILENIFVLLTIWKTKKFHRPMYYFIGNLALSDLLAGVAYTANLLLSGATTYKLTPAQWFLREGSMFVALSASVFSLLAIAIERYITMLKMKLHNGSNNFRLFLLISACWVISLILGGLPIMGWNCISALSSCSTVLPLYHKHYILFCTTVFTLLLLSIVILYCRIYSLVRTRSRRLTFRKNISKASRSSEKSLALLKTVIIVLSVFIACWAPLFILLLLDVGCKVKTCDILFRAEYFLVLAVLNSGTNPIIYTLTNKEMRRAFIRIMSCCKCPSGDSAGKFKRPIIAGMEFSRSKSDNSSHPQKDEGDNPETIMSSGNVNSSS
- Measurement notes: Membrane system binding test: inhibition of [33P]-S1P binding to the membrane fraction of Edg-1(S1P1) gene transferred HEK-293 cells
- Condition: 10 μM compound; [33P]-S1P 0.1 nM; membrane fraction of Edg-1(S1P1) gene transferred HEK-293 cells; read-out: Membrane system binding test % inhibition (10 μM)
Experimental endpoint: inhibition at 10 µM (%)

A selection of reference data follows.
1) CCn1c(OC)nnc1[C@@H](C)NS(=O)(=O)c1cc(Cl)cc(Cl)c1O [Compound 216]	63.7
2) CCOc1nnc([C@@H](C)NS(=O)(=O)c2ccc3c(c2)OCO3)n1CC [Compound 418]	70.4
3) CCC#CCSc1nnc([C@@H](C)NS(=O)(=O)c2ccc(Cl)cc2)n1CC [Compound 17]	90.6

1 = CCn1c(OC)nnc1[C@@H](C)NS(C)(=O)=O [Compound 227]
2 = CCn1c(SCCc2ccccc2)nnc1[C@@H](C)NS(=O)(=O)c1ccc(Cl)cc1 [Compound 61]
INPUT: Identify the item whose inhibition at 10 µM is the smaller number: 1 or 2 Pick one; state its label.
OUTPUT: 1
(1: 52%, 2: 98.9%)

---

- Assayed target: human Edg-1(S1P1) (Homo sapiens, UniProt P21453)
- Construct: expressed in transfected cells; host or cells: HEK-293
- Measurement notes: Cell system binding test: inhibition of [3H]-S1P binding to Edg-1(S1P1) gene transferred HEK-293 cells
- Condition: 10 μM compound, [3H]-S1P 10 nM, read-out: Cell system binding test % inhibition (10 μM)
Experimental endpoint: inhibition at 10 µM (%)

1. CCn1c(OC)nnc1[C@@H](C)NS(=O)(=O)c1cc(C)ccc1OC	94.3
2. CCn1c(SCCC(C)(C)C)nnc1[C@@H](C)NS(=O)(=O)c1ccc(Cl)cc1	87.6
3. CCn1c(OC)nnc1[C@@H](C)NS(=O)(=O)c1ccc(F)c(C(F)(F)F)c1	100
4. CCOc1nnc([C@@H](C)NS(=O)(=O)c2ccc3nsnc3c2)n1CC	98

---

- Assayed target: human Edg-1(S1P1) (Homo sapiens, UniProt P21453)
- Construct: expressed in transfected cells; host or cells: HEK-293
- Measurement notes: Membrane system binding test: inhibition of [33P]-S1P binding to the membrane fraction of Edg-1(S1P1) gene transferred HEK-293 cells
- Condition: 10 μM compound; [33P]-S1P 0.1 nM; membrane fraction of Edg-1(S1P1) gene transferred HEK-293 cells; read-out: Membrane system binding test % inhibition (10 μM)
Experimental endpoint: inhibition at 10 µM (%)

A selection of reference data follows.
1) CCn1c(OC)nnc1[C@@H](C)NS(=O)(=O)c1ccc(C(C)=O)cc1 [Compound 199]	54.9
2) C=CCSc1nnc(CNS(=O)(=O)c2ccc(Cl)cc2)n1CC [Compound 104]	42.1

a = CCn1c(SCc2ccc(C(=O)OC)cc2)nnc1[C@@H](C)NS(=O)(=O)c1ccc(Cl)cc1 [Compound 58]
b = CCn1c(OC)nnc1[C@@H](C)NS(=O)(=O)c1cc(C)ccc1OC [Compound 273]
c = CCn1c(OC)nnc1[C@@H](C)NS(=O)(=O)c1cc(S(=O)(=O)c2ccccc2)cs1 [Compound 250]
INPUT: List the 3 entries from lowest inhibition at 10 µM to highest inhibition at 10 µM value. Answer format: the labels, in the requested order.
OUTPUT: c, b, a

1 = CCOc1nnc([C@@H](C)NS(=O)(=O)c2ccc(C)c(F)c2)n1CC [Compound 411]
2 = C=CCSc1nnc([C@@H](C)NS(=O)(=O)c2ccc(Cl)cc2)n1C(C)C [Compound 97]
INPUT: Endpoint returns the identifier whose inhibition at 10 µM is numerically larger, either 1 or 2 . Pick one; state its label.
OUTPUT: 1

---

- Assayed target: human Edg-1(S1P1) (Homo sapiens)
- Construct: expressed in transfected cells; host or cells: HEK-293
- Measurement notes: Cell system binding test: inhibition of [3H]-S1P binding to Edg-1(S1P1) gene transferred HEK-293 cells
- Condition: 10 μM compound, [3H]-S1P 10 nM, read-out: Cell system binding test % inhibition (10 μM)
Experimental endpoint: inhibition at 10 µM (%)

1) CCSc1nnc([C@@H](C)NS(=O)(=O)c2ccc(Cl)cc2)n1CC	90.8
2) CCn1c(OC)nnc1[C@@H](Cc1ccccc1)NS(=O)(=O)c1ccc(Cl)cc1	101
3) CCn1c(SCc2ccc(F)cc2)nnc1[C@@H](C)NS(=O)(=O)c1ccc(Cl)cc1	85.5
4) CCn1c(OC)nnc1[C@@H](C)NS(=O)(=O)c1cccc2cccnc12	93.4

---

- Assayed target: human Edg-1(S1P1) (Homo sapiens)
- Construct: expressed in transfected cells; host or cells: HEK-293
- Measurement notes: Cell system binding test: inhibition of [3H]-S1P binding to Edg-1(S1P1) gene transferred HEK-293 cells
- Condition: 10 μM compound, [3H]-S1P 10 nM, read-out: Cell system binding test % inhibition (10 μM)
- Procedure: Cells (1×10^5 cells/well) obtained as described above were seeded in poly-L-lysine-coated 96-well plates (Corning Incorporated), and then incubated in a 5% carbon dioxide gas incubator for 12 hours at 37° C. with the use of an MEM medium (Invitrogen Corporation) containing 100 U/mL of penicillin, 100 μg/mL of streptomycin, a 1% MEM nonessential amino acid solution, and 10% FCS. […]
Experimental endpoint: inhibition at 10 µM (%)

1. CCOc1nnc([C@@H](C)NS(=O)(=O)c2ccc(Br)c(C)c2)n1CC	101
2. CCn1c(OC)nnc1[C@@H](C)NS(=O)(=O)c1ccc(C#N)cc1	99.7
3. CCCOc1nnc([C@@H](C)NS(=O)(=O)c2ccc(Cl)cc2)n1CC	89.2
4. CCn1c(OC)nnc1[C@@H](C)NS(=O)(=O)c1cc(Cl)cc(Cl)c1	97
5. CCOc1nnc([C@@H](C)NS(=O)(=O)c2cccc(O)c2)n1CC	67.8
6. CCn1c(OC)nnc1[C@@H](C)NS(=O)(=O)c1ccc(Oc2ccccc2)cc1	70.9
7. CCCOc1nnc([C@@H](Cc2ccccc2)NS(=O)(=O)c2ccc(Cl)cc2)n1CC	103
8. CCn1c(OC)nnc1[C@@H](C)NS(=O)(=O)c1c(F)c(F)c(F)c(F)c1F	95.4
